This collection of values is drawn from PubChem BioAssay AID222.

tested on: C57BL/6 mice, intracerebral ependymoblastoma, median survival T/C; test: NCI In Vivo Anticancer Drug Screen. Data for tumor model Ependymoblastoma (intracerebral) in C57BL/6 mice; details: endpoint: median survival time; dose: 16.0 mg/kg/injection; schedule: Q01DX005 (ip); vehicle: saline with Tween-80; higher = longer survival
Toxic doses and inconclusive results are not listed.

{"columns": ["COMPOUND", "T/C"],
 "data": [
  ["Nc1nc([Se])c2ncn(C3OC(CO)C(O)C3O)c2n1 (configuration not stated)", "113 % of control"],
  ["O=S(=O)(O)O", "90 % of control"],
  ["C[C@@H](CN1CC(=O)NC(=O)C1)N1CC(=O)NC(=O)C1", "108 % of control"],
  ["CCN(CC)CCCC(C)Nc1c2ccc(Cl)cc2nc2ccc(OC)cc12 (configuration not stated)", "91 % of control"],
  ["COc1cc2c3c(c1)-c1c(ccc(OC)c1OC)CC3N(CCN(CCCl)CCCl)CC2 (configuration not stated)", "108 % of control"],
  ["CC/C(=C(/CC)c1ccc(O)cc1)c1ccc(O)cc1", "101 % of control"],
  ["CCOC(=O)C(CC(C)C)NC(=O)C(Cc1ccc(N(CCCl)CCCl)cc1)NC(C)=O (configuration not stated)", "107 % of control"]
]}
